Test system: 786-0
Assay summary: NCI tumour cell line growth inhibition, 48 h
Activity calls are given as the source filed them. No stated cut-off is given here; in the data, active = GI50 up to about 1.1 µM and inactive = higher.
Recorded GI50 values for a group of compounds are listed next.

Sample records with GI50:
{"Structure": "CC(C)C1=Cc2ccc3c(c2C(=O)C1=O)CCCC3", "Readout label": "GI50", "Reading": "2.43 µM (inactive)"}
{"Structure": "O=C1C(O)=C(CN(CCCl)CCCl)C(=O)c2ccccc21", "Readout label": "GI50", "Reading": "28.2 µM (inactive)"}

Note to self: GI50 recorded for CC(=O)O[C@@]12[C@@H]3O[C@@]4(O)C[C@]5(C)[C@H]6C[C@@](C(C)C)(O[C@H]5c5ccoc5)O[C@H]1[C@]6(C4)O[C@]2(O)C(C)=CC3(C)C was 64.4 µM (inactive)

Note to self: GI50 recorded for CCc1nnc(S)n1/N=C\c1ccc(-c2ccccc2[N+](=O)[O-])o1 was 45.6 µM (inactive)

# GI50 of Nc1ccc(C(=O)O)cc1 = > 100 µM (inactive)
